- test_target: Tumor necrosis factor receptor superfamily member 10B (Homo sapiens)
- procedure_summary: caspase-8 TRAIL sensitization, hit retest, confirmation, cell-based, NB7+caspase-8, with/without TRAIL, luminescence panel (AID 651596)
- settings: NB7 neuroblastoma + caspase-8, TRAIL sensitization, luminescence viability, with TRAIL, mean of runs, at 10 µM, stronger effect = higher value
Exercise: for every item that follows, state its recorded activity.
Return type: number; implicit unit %.

Input: Recall the recorded activity for COCCn1c(C)cc(C(=O)COC(=O)c2ccccc2Br)c1C with Tumor necrosis factor receptor superfamily member 10B (Homo sapiens) and state it.
Output: 79.5

Input: Recall the recorded activity for C#Cc1ccc(NC(=O)C2(C)CCN2C(=O)Cc2ccc(C(C)C)cc2)cc1 (configuration not stated) with Tumor necrosis factor receptor superfamily member 10B (Homo sapiens) and state it.
Output: 79.1

Input: Recall the recorded activity for Cc1ccc(C(=O)Nc2ncc([N+](=O)[O-])s2)cc1 with Tumor necrosis factor receptor superfamily member 10B (Homo sapiens) and state it.
Output: 68

Input: Recall the recorded activity for CCc1ccc(C(=O)Cn2ncc(Cl)c(Cl)c2=O)cc1 with Tumor necrosis factor receptor superfamily member 10B (Homo sapiens) and state it.
Output: 99.2

Input: Recall the recorded activity for CCCCCCc1cc2cc(C(=O)Nc3ccc(OC)cc3)c(=O)oc2cc1O with Tumor necrosis factor receptor superfamily member 10B (Homo sapiens) and state it.
Output: 36

Input: Recall the recorded activity for COc1ccc(/C=C/c2nc3ccccc3n2Cc2ccccc2OC)cc1 with Tumor necrosis factor receptor superfamily member 10B (Homo sapiens) and state it.
Output: 78.5

Input: Recall the recorded activity for CCCc1ccc(C(=O)NC(=O)c2ccccc2O)cc1 with Tumor necrosis factor receptor superfamily member 10B (Homo sapiens) and state it.
Output: 78.6

###

- test_target: PEG-3 (UniProt Q6IN02)
- Sequence (Q6IN02 whole entry, looked up): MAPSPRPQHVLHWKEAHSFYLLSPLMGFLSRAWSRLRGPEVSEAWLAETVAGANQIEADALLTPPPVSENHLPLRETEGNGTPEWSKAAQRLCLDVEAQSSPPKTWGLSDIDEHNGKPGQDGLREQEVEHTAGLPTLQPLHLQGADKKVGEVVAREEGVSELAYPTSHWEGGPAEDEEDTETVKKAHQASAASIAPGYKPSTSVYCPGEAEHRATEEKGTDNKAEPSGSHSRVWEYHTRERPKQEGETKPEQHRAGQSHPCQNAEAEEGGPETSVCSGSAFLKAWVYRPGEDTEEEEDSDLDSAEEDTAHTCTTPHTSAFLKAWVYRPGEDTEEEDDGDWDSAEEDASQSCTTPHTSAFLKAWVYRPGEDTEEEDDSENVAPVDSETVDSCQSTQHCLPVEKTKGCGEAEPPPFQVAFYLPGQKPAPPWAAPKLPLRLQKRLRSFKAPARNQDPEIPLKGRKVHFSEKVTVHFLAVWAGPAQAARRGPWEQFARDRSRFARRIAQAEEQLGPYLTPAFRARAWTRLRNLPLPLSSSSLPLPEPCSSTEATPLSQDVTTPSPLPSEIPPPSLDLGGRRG
- procedure_summary: Peg3 promoter luciferase inhibitors, potency, dose response, cell-based, HeLa, CREF/GAPDH counter-screen panel (AID 624167)
- settings: CREF/GAPDH counter-screens; HeLa PEG-Prom luciferase reporter, overnight, run 2, dose range 1, at 100 µM (top of the series) unless noted
measure: inhibition (%)
Return type: number; implicit unit %.

Input: For COc1ccc(-c2cc(C(=O)N(C)Cc3ccc(OC)c(OC)c3OC)c3ccccc3n2)cc1OC , what is its reported inhibition?
Output: 72.5

Input: For Cn1cc(CN2CCCC(C(=O)Nc3ccc(-c4cccc(F)c4)cc3)C2)cn1 (stereo not given) , what is its reported inhibition?
Output: 102

Input: For Cc1cc(C(=O)CN2C(=O)c3ccccc3S2(=O)=O)c(C)n1-c1ccccc1 , what is its reported inhibition?
Output: 98

Input: For CN(C)c1ccc(/C=C/c2ccc3ccccc3n2)cc1 , what is its reported inhibition?
Output: 96

Input: For CN(C)CCNC(=O)c1sc2nc(-c3ccccc3)cc(C(F)(F)F)c2c1N , what is its reported inhibition?
Output: 102

###

- procedure_summary: caspase-8 TRAIL sensitization, hit retest, confirmation, cell-based, NB7+caspase-8, with/without TRAIL, luminescence panel (AID 651596)
- settings: NB7 neuroblastoma + caspase-8, without TRAIL, luminescence viability, without TRAIL, mean of runs, at 10 µM
Kindly apply the following: true if activity is less than 70%, false in every other case.

Input: Is 70% strictly greater than the compound's reported activity? compound: COc1ccc(OC)c(S(=O)(=O)Nc2ccc(-c3ccc4nncn4n3)cc2)c1
Output: true

Input: Is 70% strictly greater than the compound's reported activity? compound: COc1ccc(/C=C(\C#N)c2nc3ccccc3[nH]2)cc1O
Output: false

Input: Is 70% strictly greater than the compound's reported activity? compound: CCOc1ccc(C(C)=O)cc1COC(=O)c1cnc(Cl)c(Cl)c1
Output: false

Input: Is 70% strictly greater than the compound's reported activity? compound: O=C(Nc1nc(-c2ccccn2)cs1)C12CC3CC(CC(O)(C3)C1)C2
Output: false

Input: Is 70% strictly greater than the compound's reported activity? compound: CCc1nc(N)nc(N)c1-c1ccc(NCCN)c([N+](=O)[O-])c1
Output: false

Input: Is 70% strictly greater than the compound's reported activity? compound: CC1(C(=O)N/N=C/c2c(F)c(F)c(F)c(F)c2F)CC1(Cl)Cl (stereo not drawn)
Output: false

Input: Is 70% strictly greater than the compound's reported activity? compound: O=C(N/N=C/c1cccc(OC(=O)c2ccco2)c1)c1ccc(F)cc1
Output: true

###

- test_target: PEG-3 (UniProt Q6IN02)
- procedure_summary: Peg3 promoter luciferase inhibitors, potency, dose response, cell-based, HeLa, CREF/GAPDH counter-screen panel (AID 624167)
- settings: CREF/GAPDH counter-screens; HeLa PEG-Prom luciferase reporter, overnight, run 2, dose range 1, at 100 µM (top of the series) unless noted
measure: inhibition (%)
Return type: number; implicit unit %.

Input: For Cc1cccc(N=C2Sc3nc4c(C)c(C)ccc4cc3CN2CCN2CCOCC2)c1 , what is its reported inhibition?
Output: 93.7

Input: For COCC(C)n1c(C)cc(C(=O)COC(=O)c2cccn2C)c1C (stereo not drawn) , what is its reported inhibition?
Output: 83.3

Input: For CCCC(=O)NC(c1ccc(C)cc1)c1ccc2cccnc2c1O (stereo not drawn) , what is its reported inhibition?
Output: 83.5

Input: For Cc1cc2sc3ccc(C#CC4(O)CCCCC4)cc3c(=O)c2cc1C , what is its reported inhibition?
Output: 93.8

Input: For O=[N+]([O-])c1cc(Cl)cc(/C=N\Nc2ccccn2)c1O , what is its reported inhibition?
Output: 40.5

Input: For CN[C@H]1C[C@H]2c3[nH]c4ccc(-c5cccc(C)c5)cc4c3CCN2C[C@H]1[C@H](C)O , what is its reported inhibition?
Output: 100

Input: For Cn1nnnc1Sc1ncnc2scc(-c3ccsc3)c12 , what is its reported inhibition?
Output: 102

Input: For COc1cc(SC)ccc1C(=O)Nc1ncc(C)s1 , what is its reported inhibition?
Output: 98.2

Input: For COc1cc(/C=C/C(=O)N2CCC=CC2=O)cc(OC)c1OC , what is its reported inhibition?
Output: 96.1

Input: For COc1ccc(C(C(=O)NCC2CCCO2)N(Cc2cccs2)C(=O)c2snc(C(N)=O)c2N)cc1 (stereo not drawn) , what is its reported inhibition?
Output: 28.4

Input: For CCOc1cc(CNCCCN2CCOCC2)ccc1OCC(=O)Nc1cccc2ccccc12 , what is its reported inhibition?
Output: 101

Input: For CCc1ccc(O)c(CNCCNCc2cc(CC)ccc2O)c1 , what is its reported inhibition?
Output: 101

###

- procedure_summary: luciferase luminescence interference by compounds, confirmation, artefact control for SENP inhibitor project, biochemical, single concentration, SENP8 reaction pre-completed (AID 488919);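 also: plate controls were DMSO wells with completed reaction for no effect and substrate without enzyme for full effect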
- settings: Pre-incubated SENP8/Z-RLRGG-aminoluciferin, at 12.5 µM, stronger effect = higher value
The other results are listed elsewhere or left out.
Classify as follows. Reported inhibition greater than or equal to 50%: 1. Reported inhibition below: 0.

Input: Does the compound Cc1ccc(OCc2nc3ccccc3n2C)cc1 have recorded inhibition that is 50% or more?
Output: 0

Input: Does the compound Oc1ccccc1-c1cc(-c2ccc(Cl)cc2)n[nH]1 have recorded inhibition that is 50% or more?
Output: 1

Input: Does the compound CCC(=O)Nc1ccc2nn(-c3ccc(F)cc3)nc2c1 have recorded inhibition that is 50% or more?
Output: 0

Input: Does the compound Clc1ccc(C2=CSC3=Nc4cccc5cccc(c45)N23)cc1 have recorded inhibition that is 50% or more?
Output: 0

Input: Does the compound Cc1ccc(S(=O)(=O)C(C#N)c2nc3ccccc3nc2N2CCCC2)cc1C (stereo not drawn) have recorded inhibition that is 50% or more?
Output: 0

Input: Does the compound O=C(Nc1nc2ccccc2s1)c1ccc2c(c1)OCO2 have recorded inhibition that is 50% or more?
Output: 0

Input: Does the compound c1csc(-c2nc(-c3ccncc3)no2)c1 have recorded inhibition that is 50% or more?
Output: 0

Input: Does the compound Cc1cccc(NC(=O)COc2ccc(Br)cc2C)n1 have recorded inhibition that is 50% or more?
Output: 0

Input: Does the compound Cc1c(Cl)cccc1NC(=O)Nc1ccc(C(=O)N2CCCC2)cc1 have recorded inhibition that is 50% or more?
Output: 0

Input: Does the compound O=C(Nc1cccnc1Cl)c1cc(-c2ccccc2O)on1 have recorded inhibition that is 50% or more?
Output: 0

Input: Does the compound COc1ccc(-c2cc3ccc(OCc4nn[nH]n4)cc3oc2=O)cc1 have recorded inhibition that is 50% or more?
Output: 1

Input: Does the compound CC(=NCc1ccco1)c1c(C(F)(F)F)[nH]n(-c2nc3ccccc3s2)c1=O have recorded inhibition that is 50% or more?
Output: 1

Input: Does the compound COc1ccc(C(=O)Nc2ccc(F)cc2F)cc1 have recorded inhibition that is 50% or more?
Output: 1

Input: Does the compound Cc1cccc(-c2noc(-c3ccc(F)cc3)n2)c1 have recorded inhibition that is 50% or more?
Output: 1

Input: Does the compound CCOC(=O)/C(C#N)=C/c1ccc(N2CCCCC2)cc1 have recorded inhibition that is 50% or more?
Output: 0

Input: Does the compound Cn1cccc1C(=O)OCC(=O)c1ccc(Br)s1 have recorded inhibition that is 50% or more?
Output: 1

Input: Does the compound Cc1oc2c(c1C(=O)N1CCOCC1)C(=O)c1ccccc1C2=O have recorded inhibition that is 50% or more?
Output: 0

Input: Does the compound Nc1ccc(-c2nnc(-c3ccc(-c4ccccc4)cc3)o2)cc1 have recorded inhibition that is 50% or more?
Output: 0

Input: Does the compound O=c1c2cc(-c3ccccc3)sc2nc2n1N=C(c1cccs1)CS2 have recorded inhibition that is 50% or more?
Output: 0

Input: Does the compound c1c2c(cc3sc(N4CCCCC4)nc13)OCCO2 have recorded inhibition that is 50% or more?
Output: 1

Input: Does the compound O=C(Oc1ccc(-c2nc(-c3ccccn3)no2)cc1)c1ccccc1 have recorded inhibition that is 50% or more?
Output: 0

Input: Does the compound Fc1ccc2nc(N3CCCCC3)sc2c1 have recorded inhibition that is 50% or more?
Output: 0

Input: Does the compound O=C(Nc1ccc(C(=O)O)c(O)c1)c1ccccc1 have recorded inhibition that is 50% or more?
Output: 1

Input: Does the compound O=C(Nc1cccc2ccccc12)c1onc2c1CCCC2 have recorded inhibition that is 50% or more?
Output: 1

Input: Does the compound Fc1ccccc1-c1cc2cc3c(cc2cn1)OCO3 have recorded inhibition that is 50% or more?
Output: 0

Input: Does the compound COc1cccc(C(=O)Nc2ccc(N3CCCC3)cc2)c1 have recorded inhibition that is 50% or more?
Output: 1

Input: Does the compound c1ccc(-c2cc(-c3ccccc3)[nH]n2)cc1 have recorded inhibition that is 50% or more?
Output: 1

Input: Does the compound Brc1ccc2nc(N3CCCC3)sc2c1 have recorded inhibition that is 50% or more?
Output: 0

Input: Does the compound COc1ccc(Cc2nnc(SCC(=O)c3cccc([N+](=O)[O-])c3)n2C)cc1 have recorded inhibition that is 50% or more?
Output: 0

Input: Does the compound O=C(Nc1ccc(NC(=O)c2ccco2)c(Cl)c1)c1cccc([N+](=O)[O-])c1 have recorded inhibition that is 50% or more?
Output: 0

Input: Does the compound C=CCn1c(C)cc(C2=NNC(=NCC)SC2)c1C have recorded inhibition that is 50% or more?
Output: 0

Input: Does the compound Oc1cccc2ccc(/C=C/c3ccc(Br)s3)nc12 have recorded inhibition that is 50% or more?
Output: 0

Input: Does the compound O=C(Nc1ccccc1F)c1ccc2c(c1)OCO2 have recorded inhibition that is 50% or more?
Output: 1

Input: Does the compound O=C(Nc1cc2ccccc2oc1=O)C1CCCCC1 have recorded inhibition that is 50% or more?
Output: 0

Input: Does the compound C/C(=N\NC(=O)c1ccoc1C)c1ccccc1O have recorded inhibition that is 50% or more?
Output: 1

Input: Does the compound Cc1ccc(F)c(NC(=O)CCc2ccccc2)c1 have recorded inhibition that is 50% or more?
Output: 0
